system: MDA-MB-468 breast; experiment: NCI-60 one-dose screen, 48 h; conditions: 10 µM unless noted
This is part of a sample that, as a whole, favours compounds with a hit. Of some 83,000 tested, about 20% had one in any assay. Active and inactive are the calls of the source. The calls were made as follows: active = growth percent below 10; inactive = the rest.
Pick one: active, inactive

Use these answered entries as a reference point.
COc1cc(C2CC(c3cccc(Nc4ccncc4)c3)=NN2c2ccc(Cl)cc2)cc(OC)c1OC (centres undefined) : inactive
N#CSc1c[nH]c2ccc(/C=C/C(=O)/C=C(/C=C/c3ccc4[nH]cc(SC#N)c4c3)OB(F)F)cc12 : active
N#Cc1c(-c2ccc(C(F)(F)F)cc2)cc(NCC2CCS(=O)(=O)CC2)n2c1nc1ccccc12 : inactive
COC1=CC(c2ccc[nH]2)=N/C1=C\c1[nH]c(C)c(C(=O)Oc2ccccc2)c1C : active
CCc1ccc(-c2cn3ccnc3c(-c3ccc4ncn(Cc5ccccc5)c4c3)n2)cc1 : inactive

(Q) What outcome does the record of this test show for `COc1ccc2c(c1)c(-c1nc(-c3cn(C)c4ccncc34)cs1)cn2C` ?
(A) active

(Q) Any idea what this test logged for `Cc1ccc(C(=O)Nc2cccc(C(F)(F)F)c2)cc1Nc1nc(-c2cnccn2)nc2c1cnn2C` ?
(A) inactive

(Q) Hello, I am checking results. What call was entered for `Cc1nc2ccccc2c(/C=C/c2ccc(Cl)cc2)c1C(=O)/C=C/c1ccc(F)cc1` ?
(A) active

---

System: MDA-MB-468 breast
Test: NCI-60 one-dose screen, 48 h
Conditions: 10 µM unless noted
Procedure: Growth inhibition of the MDA-MB-468 human Breast tumor cell line is measured as a screen for anti-cancer activity. Cells are grown in 96 well plates and exposed to the test compound for 48 hours. Compounds are tested at a single concentration, which is 10^-5 M for most compounds. The reported endpoint is percent growth (GI% or GIPRCNT), where numbers from 0 - 100% represent growth inhibition, and numbers from -100% - 0 represent cell death. […]
Compounds without any hit were thinned out: in the full panel of roughly 83,000, 20% have a hit. Activity calls are given as the source filed them. How the source made its calls: active means growth percent below 10; inactive means the rest.
Just give me one of these, please: 1 (active), -1 (inactive)

Worked set:
CCOc1cccnc1/C=N/NC(N)=S : -1
COc1cc(/C=C2\C=C(c3ccc(F)cc3)N(Cc3ccccc3)C2=O)cc(OC)c1OC : -1
CS(=O)(=O)c1ccc(N/N=C/c2c(-c3ccc(S(C)(=O)=O)cc3)[nH]c3ccc(F)cc23)cc1 : -1
CCOC(=O)C(=O)Nc1ccc2c(ccn2C(=O)c2cccc(F)c2)c1 : -1

(Q) Please share the test call associated with `Cc1c(C(=O)O[C@H]2[C@@H]3[C@H](C)CC[C@H]3[C@]3(C)O[C@@]2(C2CCCCC2)C[C@H]3OC(=O)CO)ccc2ccccc12` .
(A) -1

(Q) Could you check what this test reported for `CN(C)c1ccc(/C=C/c2cc[n+](C)c(/C=C/c3ccc(N(C)C)cc3)c2)cc1` ?
(A) 1

(Q) Hello, I am checking results. What call was entered for `COc1ccc(/C=N/NC(=O)c2ccc(S(C)(=O)=O)cc2)cc1OC` ?
(A) -1

(Q) Name the outcome recorded for C=CCCCC(=O)CCC(=O)OCC1O[C@@H](O[C@@H]2C(O)[C@@H](OC(C)=O)C(C)O[C@H]2O[C@H](CC=C)CCCCC)C(O)[C@@H](OC(=O)/C(C)=C/C)[C@@H]1OC(=O)/C=C/c1ccccc1 (some centres not stated) in the assay.
(A) 1
